FYI, the data here is from ChEMBL document CHEMBL1145427.

- Tested on: Heart
- test_protocol: Biodistribution in ICR mouse heart at 5 to 10 uCi, iv after 30 mins
- Assay type: ADME, organism-based
- cond: in vivo, 0.5 h
recorded_endpoint: Drug uptake (% ID/g)

Query: What does the data say about its Drug uptake? Entry: CN(C)c1ccc(-c2cn(-c3ccc(OCC[18F])cc3)nn2)cc1
Result: 2.28

Query: // lookup Drug uptake for CN(C)c1ccc(-c2cn(-c3ccc(OCCC[18F])cc3)nn2)cc1
Result: 1.93

Query: For CN(C)c1ccc(-c2cn(-c3ccc([125I])cc3)nn2)cc1 , what is its reported Drug uptake?
Result: 1.34

Query: Drug uptake lookup needed for CNc1ccc(-c2cn(-c3ccc([125I])cc3)nn2)cc1 , thanks.
Result: 1.79

====

- test_protocol: Displacement of [125I]IMPY from beta amyloid protein plaques in Alzheimer's disease patient brain
- Design: species or system Homo sapiens
recorded_endpoint: Ki (nM)

A: CNc1ccc(-c2cn(-c3ccc(I)cc3)nn2)cc1
B: CN(C)c1ccc(-c2cn(-c3ccc(OCCCF)cc3)nn2)cc1
Query: From the recorded data, which exceeds the other in Ki: A or B ? Identify your selection by its label.
Result: B
(B: 6.2 nM, A: 4 nM)

====

- Test system: Liver
- test_protocol: Biodistribution in ICR mouse liver at 5 to 10 uCi, iv after 2 mins
- Assay type: ADME, organism-based
- cond: in vivo
recorded_endpoint: Drug uptake (% ID/g)

# example entries with known answers
Query: Reported Drug uptake, compound CN(C)c1ccc(-c2cn(-c3ccc(OCCC[18F])cc3)nn2)cc1 : ____
Result: 15.6

Query: Please report the recorded Drug uptake for CN(C)c1ccc(-c2cn(-c3ccc([125I])cc3)nn2)cc1 .
Result: 17.4

a: CNc1ccc(-c2cn(-c3ccc([125I])cc3)nn2)cc1
b: CN(C)c1ccc(-c2cn(-c3ccc(OCC[18F])cc3)nn2)cc1
Query: Lower value for measured Drug uptake? Options: a , b Your answer should be the label of the entry you select.
Result: b
(b: 11.6 % ID/g, a: 20.7 % ID/g)

====

- Test system: Blood
- test_protocol: Biodistribution in ICR mouse blood at 5 to 10 uCi, iv after 1 hr
- Assay type: ADME, organism-based
- cond: in vivo
recorded_endpoint: Drug uptake (% ID/g)

Query: Return reported Drug uptake; argument: CN(C)c1ccc(-c2cn(-c3ccc(OCC[18F])cc3)nn2)cc1
Result: 2.45

I: CNc1ccc(-c2cn(-c3ccc([125I])cc3)nn2)cc1
II: CN(C)c1ccc(-c2cn(-c3ccc(OCCC[18F])cc3)nn2)cc1
III: CN(C)c1ccc(-c2cn(-c3ccc([125I])cc3)nn2)cc1
Query: Put the items in sequence by Drug uptake, from largest down. Please reply with the labels ordered as requested. Many thanks.
Result: I, III, II

====

- Test system: Spleen
- test_protocol: Biodistribution in ICR mouse spleen at 5 to 10 uCi, iv after 2 hrs
- Type: ADME, organism-based
- cond: in vivo
recorded_endpoint: Drug uptake (% ID/g)

The following compounds have reported results that may help.
Query: Query (compound): CN(C)c1ccc(-c2cn(-c3ccc(OCC[18F])cc3)nn2)cc1 ; field requested: Drug uptake
Result: 1.43

Query: Consider the compound CN(C)c1ccc(-c2cn(-c3ccc(OCCC[18F])cc3)nn2)cc1 and give its measured Drug uptake.
Result: 0.17

P: CNc1ccc(-c2cn(-c3ccc([125I])cc3)nn2)cc1
Q: CN(C)c1ccc(-c2cn(-c3ccc([125I])cc3)nn2)cc1
Query: Among P and Q , which shows a numerically higher Drug uptake result? Let me know the label of the one you choose.
Result: P
(P: 1.16 % ID/g, Q: 0.69 % ID/g)
